Source listed as PubChem BioAssay.

tested on: Fibrinogen (Alexa647-labelled); test: fibrinogen binders on compound microarrays, profiling panel, artefact control for SMM control-protein annotation, biochemical, small-molecule microarray, 635/667 nm fluorescence (AID 1131); conditions: fibrinogen-A647 binding fluorescence, higher = more signal;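 note: z-score merges 667 nm fluorescence with per-spot signal-to-noise over triplicate slides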
Note that class boundaries on composite z-score are low interval (below 0.2), middle interval (0.2 to below 0.8), high interval (0.8 or more)

Example cases with answers are listed next.
C=CCNC(=O)[C@H]1[C@@H]2C(=O)O[C@@H](c3ccccc3)[C@@H](c3ccccc3)N2[C@@H](c2ccc(O)cc2)[C@]12C(=O)Nc1ccc(C#CC3=CCCCC3)cc12 : middle interval
CC(=O)NCCCC[C@@H]1NC(=O)[C@@H]2C[C@H](C(=O)NCCCCCC[N+](C)(C)C)[C@H](c3ccc(O)cc3)N2C1=O : middle interval
COCCOC(=O)N1C(=O)[C@@]2(c3cc(C#Cc4ccc(OC)cc4)ccc31)[C@H](c1ccc(OCCO)cc1)N1[C@H](c3ccccc3)[C@H](c3ccccc3)OC(=O)[C@H]1[C@@H]2C(=O)N1CCCCCCC1 : middle interval
O=C1N(CCS(=O)(=O)c2ccccc2)c2ccccc2[C@@H]2OC(c3ccc(OCCCO)cc3)=N[C@]12CCS(=O)(=O)c1ccccc1 : high interval
CCCCN1CC=CC23O[C@@H]4C=CCOC(=O)[C@@H]4[C@H]2C(=O)N(CCO)[C@@H]3C1=O (stereo not given in full) : low interval

-- ask Classify this compound: O=C1C2C=CC(C(O)C(c3ccccc3)c3ccccc3)N(Nc3ccccc3)C2C(=O)N1c1ccccc1 (stereo not given)
-- reply high interval

-- ask Classify this compound: `COC(=O)[C@@]1(Cc2ccc(F)cc2)[C@H]2c3cc(C(=O)N4CCCC4)n(CCO)c3C[C@H]2CN1C(=O)c1ccccc1`
-- reply low interval

-- ask Classify this compound: `COCCOC(=O)N1C(=O)[C@@]2(c3cc(C#CC4=CCCCC4)ccc31)[C@H](C(=O)N1CCN(c3ncccn3)CC1)[C@H]1C(=O)O[C@H](c3ccccc3)[C@H](c3ccccc3)N1[C@@H]2c1ccccc1OCCO`
-- reply high interval

-- ask Classify this compound: C=CCC(OC(C)=O)[C@@H]1[C@@H](N(Cc2ccc(-c3cccc(C(F)(F)F)c3)o2)C(=O)c2cccc3ccccc23)c2cc(OCCCO)ccc2N1C(=O)c1ccc2ccccc2n1 (stereo not given in full)
-- reply low interval

====

molecular target: Calmodulin-1 (Homo sapiens); test: calcium-bound CALM1 binders on microarrays, profiling panel, artefact control for SMM control-protein annotation, biochemical, small-molecule microarray, Cy5-labelled CALM1, plus calcium (AID 1112); settings: Cy5-CALM1 binding fluorescence, higher = more signal;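 note: score merges spot fluorescence with signal to noise from triplicate slides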
Quick rule: composite z-score of at least 0.3 means YES, below that means NO.

Example cases with answers are listed next.
CCCCN1CC=CC23O[C@@H]4C=CCOC(=O)[C@@H]4[C@H]2C(=O)N(CCO)[C@@H]3C1=O (stereo partly specified) : YES
COCCOC(=O)N1C(=O)[C@@]2(c3cc(C#CC4(O)CCCCCC4)ccc31)[C@H](c1ccc(OCCO)cc1)N1[C@H](c3ccccc3)[C@H](c3ccccc3)OC(=O)[C@H]1[C@@H]2C(N)=O : NO

-- ask For this compound, is measured composite z-score 0.3 or higher? `COC(=O)[C@@]1(Cc2ccc(OC)cc2)[C@H]2c3cc(C(=O)N4CCCC4)n(CCc4ccc(OC)c(Br)c4)c3C[C@H]2CN1C(=O)c1ccccc1`
-- reply YES

-- ask For this compound, is measured composite z-score 0.3 or higher? `[N-]=[N+]=NCc1ccccc1C[C@]1(C(=O)NCc2ccccc2)N=C(c2ccc(OCCCO)cc2)O[C@H]1c1ccccc1CN=[N+]=[N-]`
-- reply YES

-- ask For this compound, is measured composite z-score 0.3 or higher? `O=C1O[C@@H](c2ccccc2)[C@@H](c2ccccc2)N2[C@@H](c3ccc(OCCO)cc3)[C@]3(C(=O)Nc4ccc(C#CCCO)cc43)[C@@H](C(=O)Nc3nc4ccccc4s3)[C@H]12`
-- reply YES

-- ask For this compound, is measured composite z-score 0.3 or higher? CC(c1ccccc1)C(O)C1C=CC2C(=O)N(c3ccccc3)C(=O)C2N1Nc1ccc(C#N)cc1 (stereo unspecified)
-- reply NO

====

Recorded composite z-score, one value per entry.
test system: PRMT1 (protein arginine N-methyltransferase 1); experiment: PRMT1 binders on small-molecule microarrays, primary screen, biochemical, small-molecule microarray, 635 nm fluorescence (AID 1088); conditions: small-molecule microarray binding, higher = more signal;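 note: binding of Prmt1 protein to compounds spotted on small-molecule microarray slides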

CCCCC(=C=CC[C@@H](O)c1cccc(OCCO)c1)CCO : 0.468
COC(=O)C1(CC(C)C)C=C2C(=C(C(C)C)C(=O)C2C)CN1 (stereo not drawn) : -0.866
CCCCC(O)C1C=CC2C(=O)N(C)C(=O)C2N1Nc1ccccc1 (stereo not drawn) : 0.24
C=CCC(OC(C)=O)[C@@H]1[C@@H](N(Cc2ccc(-c3cccc(C(F)(F)F)c3)o2)C(=O)Cc2ccc(F)cc2)c2cc(OCCCO)ccc2N1C(=O)c1ccc2ccccc2n1 (stereo partly drawn) : -1.08
CC(C)C[C@H]1NC(=O)[C@H](Cc2ccccc2)NC(=O)[C@@]23C(=O)N[C@@H](Cc4ccccc4)C2[C@H](C)[C@@]2(C)O[C@H]2C3/C=C/C/C=C\CNC1=O (stereo partly drawn) : 1.21

-- ask What measured composite z-score goes with `CC(C)CNC(=O)[C@@]1(C)c2ccccc2C(=O)N(Cc2cc(F)cc(C(F)(F)F)c2)[C@H]1c1ccc(CO)cc1` ?
-- reply 1.56

-- ask What measured composite z-score goes with `C=C(CC1([C@@H](NP(=O)(c2ccccc2)c2ccccc2)[C@H]2C[C@@H]2CCN(C(=O)OCC)S(=O)(=O)c2ccc(C)cc2)CC1)c1ccccc1` ?
-- reply -0.362

-- ask What measured composite z-score goes with `CN1C(=O)[C@]2(CCS(=O)(=O)c3ccccc3)N=C(c3ccc(OCCCO)cc3)O[C@@H]2c2ccccc21` ?
-- reply 1.54

====

molecular target: Pro-neuregulin-1, membrane-bound isoform (Homo sapiens) (UniProt Q02297); experiment: NRG1 binders on small-molecule microarrays, primary screen, psychiatric disease protein project, biochemical, small-molecule microarray, fluorescence 635/667 (AID 1075); details: NRG1 binding, 635 nm fluorescence, higher = more signal;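 note: score combines 667 nm spot fluorescence with signal to noise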
Sequence (Q02297 whole entry, looked up, canonical isoform): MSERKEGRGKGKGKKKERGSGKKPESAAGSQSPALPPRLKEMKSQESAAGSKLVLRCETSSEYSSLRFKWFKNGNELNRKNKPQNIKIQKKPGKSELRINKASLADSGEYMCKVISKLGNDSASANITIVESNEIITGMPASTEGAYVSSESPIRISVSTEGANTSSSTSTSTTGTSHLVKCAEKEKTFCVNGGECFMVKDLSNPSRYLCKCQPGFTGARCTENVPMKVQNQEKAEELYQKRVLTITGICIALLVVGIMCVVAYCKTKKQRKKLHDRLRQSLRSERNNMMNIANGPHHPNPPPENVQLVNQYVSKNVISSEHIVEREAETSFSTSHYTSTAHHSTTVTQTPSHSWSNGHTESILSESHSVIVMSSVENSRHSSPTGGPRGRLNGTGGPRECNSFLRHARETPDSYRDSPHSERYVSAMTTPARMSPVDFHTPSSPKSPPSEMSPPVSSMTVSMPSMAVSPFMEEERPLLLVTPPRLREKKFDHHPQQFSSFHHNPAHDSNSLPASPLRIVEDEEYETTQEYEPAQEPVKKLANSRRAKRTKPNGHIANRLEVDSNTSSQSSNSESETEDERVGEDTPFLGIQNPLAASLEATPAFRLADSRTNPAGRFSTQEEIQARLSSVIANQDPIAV
Quick rule: composite z-score of at least 0.8 means yes, below that means no.

C[N+](C)(C)CCCC[C@@H]1NC(=O)[C@H]2C[C@@H](C(=O)NCCCCCNC(=O)CS)[C@@H](c3ccc(O)cc3)N2C1=O : yes
COCC1=C([C@H](O)CCc2ccccc2)[C@H](CO)n2c(=O)n(-c3ccccc3)c(=O)n2C1 : no

-- ask For this compound, is measured composite z-score 0.8 or higher? `COCCOC(=O)N1C(=O)[C@@]2(c3ccccc31)[C@H](C(N)=O)[C@H]1C(=O)O[C@H](c3ccccc3)[C@H](c3ccccc3)N1[C@@H]2c1ccc(OCCO)cc1`
-- reply yes

-- ask For this compound, is measured composite z-score 0.8 or higher? `O=C(NCCO)C1=C[C@H](Oc2ccccc2I)[C@@H](O)[C@H](NCc2ccc(F)cc2)C1`
-- reply no

-- ask For this compound, is measured composite z-score 0.8 or higher? `CN(C)C(=O)[C@]1(Cc2ccccc2CN=[N+]=[N-])N=C(c2ccc(OCCCO)cc2)O[C@@H]1c1ccccc1N=[N+]=[N-]`
-- reply yes

-- ask For this compound, is measured composite z-score 0.8 or higher? `[N-]=[N+]=NCc1ccccc1[C@@H]1OC(c2ccc(OCCCO)cc2)=N[C@]1(Cc1ccccc1)C(=O)NCc1ccccc1`
-- reply yes

-- ask For this compound, is measured composite z-score 0.8 or higher? `CCCC[C@@H](O)C1=C(COC)Cn2c(=O)n(-c3ccccc3)c(=O)n2[C@H]1CO`
-- reply no

-- ask For this compound, is measured composite z-score 0.8 or higher? CC(=O)c1ccc(C(O)C2C=CC3C(=O)N(C)C(=O)C3N2NC(=O)OC(C)(C)C)cc1 (stereo unspecified)
-- reply yes

-- ask For this compound, is measured composite z-score 0.8 or higher? C=CCC(OC(C)=O)[C@@H]1[C@@H](N(Cc2ccc(-c3cccc(C(F)(F)F)c3)o2)C(=O)c2cccc3ccccc23)c2cc(OCCCO)ccc2N1C(=O)c1ccc2ccccc2c1 (stereo partly specified)
-- reply no

-- ask For this compound, is measured composite z-score 0.8 or higher? C=CC(CO)NC(=O)OCC1c2ccccc2-c2ccccc21 (stereo unspecified)
-- reply no

-- ask For this compound, is measured composite z-score 0.8 or higher? CC[C@H](C)C(=O)O[C@H]1CC[C@]2(C)C3=C(CCC2C1(C)C)[C@]1(C)CC[C@H]([C@H](C)CCCC(C)C)[C@@]1(C)CC3 (stereo partly specified)
-- reply no

-- ask For this compound, is measured composite z-score 0.8 or higher? `C#CCN(C/C=C/c1ccccc1)[C@H](CO[Si](C)(C)C(C)(C)C)c1ccccc1`
-- reply no

-- ask For this compound, is measured composite z-score 0.8 or higher? `CC(C)CNC(=O)[C@@H]1c2ccccc2C(=O)N(Cc2ccccc2Cl)[C@H]1c1ccc(CO)cc1`
-- reply no

-- ask For this compound, is measured composite z-score 0.8 or higher? N#Cc1ccc(C(O)C2C=CC3C(=O)NC(=O)C3N2Nc2ccccn2)cc1 (stereo unspecified)
-- reply yes

-- ask For this compound, is measured composite z-score 0.8 or higher? `CCOC(=O)C[C@H]1[C@H](OC(=O)c2cc3ccccc3oc2=O)[C@@H](NC(=O)C2CCCCC2)c2cc(OCCCO)ccc2N1C(=O)Cc1ccc(OC)cc1`
-- reply no
